Could you please report measured viability, T/C for the items listed next?
- Tested on: 598228-144-R-J1-PDC complex spheroids, viability;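 also: spheroids exposed to compounds for seven days before readout; 100% = DMSO vehicle control wells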
- method-notes: Anticancer human tumor 598228-144-R-J1-PDC patient-derived serous endometrial adenocarcinoma cell line growth inhibition [CLK]
- assay-conditions: second compound 0.0316 µM; first compound 1 µM; stronger effect = lower value

>  <compound>
COC1C=CCC(C)C(C)S(=O)(=O)NC(=O)c2ccc3c(c2)N(CC2CCC21)CC1(CCCc2cc(Cl)ccc21)CO3 (stereo not drawn) + CNC(=O)c1ccc(Nc2nc(OC3CCCC3)c3c(-c4ccc5nc(C)oc5c4)c[nH]c3n2)c(OC)c1

>  <viability, T/C>
69.3%

$$$$
>  <compound>
C=C(F)C(=O)N1CCN(c2nc(OCC3CCCN3C)nc3c2CCN(c2cccc4cccc(Cl)c24)C3)CC1CC#N (stereo not drawn) + CNC(=O)c1ccc(Nc2nc(OC3CCCC3)c3c(-c4ccc5nc(C)oc5c4)c[nH]c3n2)c(OC)c1

>  <viability, T/C>
99.7%

$$$$

For the next question, use this compound.
Lab note: need viability, T/C for O=c1[nH]cc(F)c(=O)[nH]1 + CN1CCN(c2cc(C(=O)Nc3cc4cc(-c5cnn(C)c5)ccc4cn3)ccn2)CC1 on 598228-144-R-J1-PDC complex spheroids, viability, anyone have it? 125%
